Test: Clearance in Sprague-Dawley rat at 2 mg/kg, iv administered as single dose
Assay type: ADME, organism-based
Details: in vivo
Here, each record is paired with measured clearance data.

- COMPOUND: "C=CC(=O)Nc1cc(Nc2nccc(-c3cn(C4CC4)c4ccccc34)n2)c(OC)cc1[S+]([O-])CCN(C)C (configuration not stated)"
  clearance: "98.1 mL/min/kg"

Okay, now this compound:
Which clearance reading was recorded for the compound C=CC(=O)Nc1cc(Nc2nccc(-c3cn(C)c4ccccc34)n2)c(OC)cc1[S+]([O-])CCN(C)C (configuration not stated) ?
82.2 mL/min/kg

---

Experiment: AUC (0 to infinity) in Sprague-Dawley rat at 10 mg/kg, po administered as single dose
Assay type: ADME, organism-based
Set-up: time infinity, route oral, dose 10 mg/kg
Details: in vivo
AUC(0-inf) listing for selected compounds.
Answer in ng·h/mL, number only, no unit symbol.

- COMPOUND: "C=CC(=O)Nc1cc(Nc2nccc(-c3cn(C)c4ccccc34)n2)c(OC)cc1[S+]([O-])CCN(C)C (configuration not stated)"
  AUC(0-inf) [ng·h/mL]: 652

Now look at this one.
Fill in: AUC(0-inf) of C=CC(=O)Nc1cc(Nc2nccc(-c3cn(C4CC4)c4ccccc34)n2)c(OC)cc1[S+]([O-])CCN(C)C (configuration not stated) is ___
722
